Entry source: paper PMC10763561

# assay_overview: Serum stability study monitored by HPLC
# Type: in vitro ADME, human
# assay_conditions: human, human serum diluted in PBS, 24 h; replicate 2; human serum 50 uL in PBS 500 uL, 37 °C, HPLC 220 nm, caffeine internal standard; read-out: Normalised Linker % (peptide remaining)
measure_name: remaining at 24 h, 175 µM

Read the entry Ac-TSFAEYWNNLSP-NH2 [PMI, reference compound] and write its reported remaining at 24 h, 175 µM.
0%

----------
# assay_overview: Serum stability study monitored by HPLC
# Assay type: in vitro ADME, human
# assay_conditions: human, human serum diluted in PBS, 120 h; replicate 1; human serum 50 uL in PBS 500 uL, 37 °C, HPLC 220 nm, caffeine internal standard; read-out: Normalised Linker % (peptide remaining)
Starred links: 1 amine or outer side, 2 acyl side, 3 side chain; linkers in the order of their positions; H or OH if unused. Positions of bridges follow the written chain, without caps; N, C: chain ends. Residues, ends and D or L forms follow the SMILES beside them. X1 = Clc1cc([*:1])cc(Cl)c1N=Nc1c(Cl)cc([*:2])cc1Cl
measure_name: remaining at 120 h, 175 µM
Phrase the answer as number then unit, nothing more needed.

Read the entry CC(=O)N[C@H](C(=O)N[C@@H](CO)C(=O)N[C@@H](Cc1ccccc1)C(=O)N[C@@H](C)C(=O)N[C@H]1CSc2cc(Cl)c(c(Cl)c2)N=Nc2c(Cl)cc(cc2Cl)SC[C@@H](C(N)=O)NC(=O)[C@H](CO)NC(=O)[C@H](CC(C)C)NC(=O)CNC(=O)[C@H](CC(N)=O)NC(=O)[C@H](Cc2c[nH]c3ccccc23)NC(=O)[C@H](Cc2ccc(O)cc2)NC1=O)[C@@H](C)O [SP1] (Ac-TSFACYWNGLSC-NH2; linker 5-12 via X1) and write its reported remaining at 120 h, 175 µM.
82.4%

----------
# assay_overview: Serum stability study monitored by HPLC
# Type: in vitro ADME, human
# assay_conditions: human, human serum diluted in PBS, 72 h; replicate 2; human serum 50 uL in PBS 500 uL, 37 °C, HPLC 220 nm, caffeine internal standard; read-out: Normalised Linker % (peptide remaining)
Starred links: 1 amine or outer side, 2 acyl side, 3 side chain; linkers in the order of their positions; H or OH if unused. Positions of bridges follow the written chain, without caps; N, C: chain ends. Residues, ends and D or L forms follow the SMILES beside them. X1 = Clc1cc([*:1])cc(Cl)c1N=Nc1c(Cl)cc([*:2])cc1Cl
measure_name: remaining at 72 h, 175 µM (%)
Give a bare numeral; the unit % is implied.

Read the entry CC(=O)N[C@H](C(=O)N[C@@H](CO)C(=O)N[C@@H](Cc1ccccc1)C(=O)N[C@@H](C)C(=O)N[C@H]1CSc2cc(Cl)c(c(Cl)c2)N=Nc2c(Cl)cc(cc2Cl)SC[C@@H](C(N)=O)NC(=O)[C@H](CO)NC(=O)[C@H](CC(C)C)NC(=O)CNC(=O)[C@H](CC(N)=O)NC(=O)[C@H](Cc2c[nH]c3ccccc23)NC(=O)[C@H](Cc2ccc(O)cc2)NC1=O)[C@@H](C)O [SP1] (Ac-TSFACYWNGLSC-NH2; linker 5-12 via X1) and write its reported remaining at 72 h, 175 µM.
53.6
